Test: Determination of cell permeability in PAMPA cell membranes (Parallel Artificial Membrane Permeability Assay)
Type: in vitro ADME
Details: 500 μM, Hepes buffer pH 7.4, 16 hours, room temperature
Observed property: Cell permeability in PAMPA-cell membranes (% flux)

>  <Structure string>
CC[C@@H]1NC(=O)[C@H]([C@H](O)[C@H](C)Cc2nc3cc(C(=O)O)ccc3n2C)N(C)C(=O)[C@H](C(C)C)N(C)C(=O)[C@H](CC(C)C)N(C)C(=O)[C@H](CC(C)C)N(C)C(=O)[C@@H](C)NC(=O)[C@H](C)NC(=O)[C@H](CC(C)C)N(C)C(=O)[C@H](C(C)C)NC(=O)[C@H](CC(C)C)N(C)C(=O)CN(C)C1=O

>  <Recorded result>
0.7

$$$$

---

Biological target: calcineurin (Homo sapiens, UniProt P62937+P63098+Q08209)
Assay: Inhibition of the phosphatase activity of calcineurin (scintillation-proximity-assay, in presence of Cyp18)
pIC50: −log10 of the molar value.
Observed property: pIC50

>  <Structure string>
CC[C@@H]1NC(=O)[C@H]([C@H](O)[C@H](C)Cc2nc3cc(N4CCN(C)CC4)ccc3[nH]2)N(C)C(=O)[C@H](C(C)C)N(C)C(=O)[C@H](CC(C)C)N(C)C(=O)[C@H](CC(C)C)N(C)C(=O)[C@@H](C)NC(=O)[C@H](C)NC(=O)[C@H](CC(C)C)N(C)C(=O)[C@H](C(C)C)NC(=O)[C@H](CC(C)C)N(C)C(=O)CN(C)C1=O

>  <Recorded result>
< 5.00

$$$$
>  <Structure string>
CCC(CC)COC(=O)c1ccc2[nH]c(C[C@@H](C)[C@@H](O)[C@H]3C(=O)N[C@@H](CC)C(=O)N(C)CC(=O)N(C)[C@@H](CC(C)C)C(=O)N[C@@H](C(C)C)C(=O)N(C)[C@@H](CC(C)C)C(=O)N[C@@H](C)C(=O)N[C@H](C)C(=O)N(C)[C@@H](CC(C)C)C(=O)N(C)[C@@H](CC(C)C)C(=O)N(C)[C@@H](C(C)C)C(=O)N3C)nc2c1

>  <Recorded result>
5.16

$$$$
>  <Structure string>
CC[C@@H]1NC(=O)[C@H]([C@H](O)[C@H](C)Cc2nc3cc(C(N)=O)ccc3[nH]2)N(C)C(=O)[C@H](C(C)C)N(C)C(=O)[C@H](CC(C)C)N(C)C(=O)[C@H](CC(C)C)N(C)C(=O)[C@@H](C)NC(=O)[C@H](C)NC(=O)[C@H](CC(C)C)N(C)C(=O)[C@H](C(C)C)NC(=O)[C@H](CC(C)C)N(C)C(=O)CN(C)C1=O

>  <Recorded result>
< 5.00

$$$$

---

Target: calcineurin (Homo sapiens, UniProt P62937+P63098+Q08209)
Assay: Inhibition of the phosphatase activity of calcineurin (scintillation-proximity-assay, in presence of Cyp18);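 note: calcineurin dephosphorylation of a ³³P-labelled RII phosphopeptide, captured on streptavidin-coated wells and read by scintillation counting, with uninhibited enzyme activity taken as 100%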
pIC50: −log10 of the molar value.

>  <Compound>
CC[C@@H]1NC(=O)[C@H]([C@H](O)[C@H](C)Cc2nc3cc(C(=N)N)ccc3[nH]2)N(C)C(=O)[C@H](C(C)C)N(C)C(=O)[C@H](CC(C)C)N(C)C(=O)[C@H](CC(C)C)N(C)C(=O)[C@@H](C)NC(=O)[C@H](C)NC(=O)[C@H](CC(C)C)N(C)C(=O)[C@H](C(C)C)NC(=O)[C@H](CC(C)C)N(C)C(=O)CN(C)C1=O

>  <pIC50>
5.32

$$$$
>  <Compound>
CC[C@@H]1NC(=O)[C@H]([C@H](O)[C@H](C)Cc2nc3cc(C(=O)N4CCCC4C(=O)N4CCC[C@H]4C(=O)N4CCCC4C(=O)N4CCC[C@H]4C(=O)N4CCCC4C(=O)N4CCC[C@H]4C(=O)O)ccc3[nH]2)N(C)C(=O)[C@H](C(C)C)N(C)C(=O)[C@H](CC(C)C)N(C)C(=O)[C@H](CC(C)C)N(C)C(=O)[C@@H](C)NC(=O)[C@H](C)NC(=O)[C@H](CC(C)C)N(C)C(=O)[C@H](C(C)C)NC(=O)[C@H](CC(C)C)N(C)C(=O)CN(C)C1=O (some centres unmarked)

>  <pIC50>
< 5.00

$$$$
>  <Compound>
CC[C@@H]1NC(=O)[C@H]([C@H](O)[C@H](C)Cc2nc3cc(C(=O)NCCOCCOCCNC(=O)CCC(=O)O)ccc3[nH]2)N(C)C(=O)[C@H](C(C)C)N(C)C(=O)[C@H](CC(C)C)N(C)C(=O)[C@H](CC(C)C)N(C)C(=O)[C@@H](C)NC(=O)[C@H](C)NC(=O)[C@H](CC(C)C)N(C)C(=O)[C@H](C(C)C)NC(=O)[C@H](CC(C)C)N(C)C(=O)CN(C)C1=O

>  <pIC50>
< 5.00

$$$$
>  <Compound>
CC[C@@H]1NC(=O)[C@H]([C@H](O)[C@H](C)Cc2nc3cc(C(=O)NN)ccc3[nH]2)N(C)C(=O)[C@H](C(C)C)N(C)C(=O)[C@H](CC(C)C)N(C)C(=O)[C@H](CC(C)C)N(C)C(=O)[C@@H](C)NC(=O)[C@H](C)NC(=O)[C@H](CC(C)C)N(C)C(=O)[C@H](C(C)C)NC(=O)[C@H](CC(C)C)N(C)C(=O)CN(C)C1=O

>  <pIC50>
5.15

$$$$
>  <Compound>
CC[C@@H]1NC(=O)[C@H]([C@H](O)[C@H](C)Cc2nc3cc(C(=O)O)ccc3n2C)N(C)C(=O)[C@H](C(C)C)N(C)C(=O)[C@H](CC(C)C)N(C)C(=O)[C@H](CC(C)C)N(C)C(=O)[C@@H](C)NC(=O)[C@H](C)NC(=O)[C@H](CC(C)C)N(C)C(=O)[C@H](C(C)C)NC(=O)[C@H](CC(C)C)N(C)C(=O)CN(C)C1=O

>  <pIC50>
< 5.00

$$$$
>  <Compound>
CC[C@@H]1NC(=O)[C@H]([C@H](O)[C@H](C)Cc2nc3cc(C(=O)NCCN4CCN(C(=O)CCC(=O)O)CC4)ccc3[nH]2)N(C)C(=O)[C@H](C(C)C)N(C)C(=O)[C@H](CC(C)C)N(C)C(=O)[C@H](CC(C)C)N(C)C(=O)[C@@H](C)NC(=O)[C@H](C)NC(=O)[C@H](CC(C)C)N(C)C(=O)[C@H](C(C)C)NC(=O)[C@H](CC(C)C)N(C)C(=O)CN(C)C1=O

>  <pIC50>
5.14

$$$$
>  <Compound>
CC[C@@H]1NC(=O)[C@H]([C@H](O)[C@H](C)Cc2nc3cc(C(=O)NC(CCC(=O)O)C(=O)NC(CCC(=O)O)C(=O)O)ccc3[nH]2)N(C)C(=O)[C@H](C(C)C)N(C)C(=O)[C@H](CC(C)C)N(C)C(=O)[C@H](CC(C)C)N(C)C(=O)[C@@H](C)NC(=O)[C@H](C)NC(=O)[C@H](CC(C)C)N(C)C(=O)[C@H](C(C)C)NC(=O)[C@H](CC(C)C)N(C)C(=O)CN(C)C1=O (some centres unmarked)

>  <pIC50>
< 5.00

$$$$
>  <Compound>
CC[C@@H]1NC(=O)[C@H]([C@H](O)[C@H](C)Cc2nc3cc(C(=O)OCCN(C)C)ccc3[nH]2)N(C)C(=O)[C@H](C(C)C)N(C)C(=O)[C@H](CC(C)C)N(C)C(=O)[C@H](CC(C)C)N(C)C(=O)[C@@H](C)NC(=O)[C@H](C)NC(=O)[C@H](CC(C)C)N(C)C(=O)[C@H](C(C)C)NC(=O)[C@H](CC(C)C)N(C)C(=O)CN(C)C1=O

>  <pIC50>
5.21

$$$$
>  <Compound>
CC[C@@H]1NC(=O)[C@H]([C@H](O)[C@H](C)Cc2nc3c(F)c(F)cc(S(=O)(=O)O)c3[nH]2)N(C)C(=O)[C@H](C(C)C)N(C)C(=O)[C@H](CC(C)C)N(C)C(=O)[C@H](CC(C)C)N(C)C(=O)[C@@H](C)NC(=O)[C@H](C)NC(=O)[C@H](CC(C)C)N(C)C(=O)[C@H](C(C)C)NC(=O)[C@H](CC(C)C)N(C)C(=O)CN(C)C1=O

>  <pIC50>
< 5.00

$$$$
>  <Compound>
CC[C@@H]1NC(=O)[C@H]([C@H](O)[C@H](C)Cc2nc3cc(/C=C/C(=O)O)ccc3[nH]2)N(C)C(=O)[C@H](C(C)C)N(C)C(=O)[C@H](CC(C)C)N(C)C(=O)[C@H](CC(C)C)N(C)C(=O)[C@@H](C)NC(=O)[C@H](C)NC(=O)[C@H](CC(C)C)N(C)C(=O)[C@H](C(C)C)NC(=O)[C@H](CC(C)C)N(C)C(=O)CN(C)C1=O

>  <pIC50>
< 5.00

$$$$
>  <Compound>
CC[C@@H]1NC(=O)[C@H]([C@H](O)[C@H](C)Cc2nc3cc(F)cc(C(=O)O)c3[nH]2)N(C)C(=O)[C@H](C(C)C)N(C)C(=O)[C@H](CC(C)C)N(C)C(=O)[C@H](CC(C)C)N(C)C(=O)[C@@H](C)NC(=O)[C@H](C)NC(=O)[C@H](CC(C)C)N(C)C(=O)[C@H](C(C)C)NC(=O)[C@H](CC(C)C)N(C)C(=O)CN(C)C1=O

>  <pIC50>
< 5.00

$$$$
